Data origin, for the record: PubChem BioAssay (NCI)

# Lookup of reported TGI keyed by entry
- System: ACHN renal
- assay_procedure: NCI tumour cell line growth inhibition, 48 h
quantity: TGI

INSERT INTO assay_data (molecule, assay_value) VALUES
  ('COc1cc(CCc2ccc(N)cc2)cc(OC)c1OC', '> 100 µM'),
  ('COc1ccc(-n2sc3ncccc3c2=O)cc1', '34.5 µM'),
  ('COc1ccc(C(C2=C(O)COC2=O)c2cc3c(cc2O)OCO3)cc1OC (stereo unspecified)', '> 100 µM'),
  ('COC(=O)c1ccc(NC(=O)Oc2ccc(N(CCCl)CCCl)cc2)cc1', '16.4 µM'),
  ('COc1cc(C2c3cc4c(cc3OC(NCCO)C2C)OCO4)cc(OC)c1OC (stereo unspecified)', '> 91.5 µM'),
  ('CCOC(=O)Cc1nc2c(N)ncnc2n1C1OC(COC(C)=O)C(OC(C)=O)C1OC(C)=O (stereo unspecified)', '> 100 µM');

----------
- Tested on: A498 renal
- assay_procedure: NCI tumour cell line growth inhibition, 48 h; in the data active = GI50 below about 0.43 µM; inactive = the rest
Outcome codes: TRUE for active, FALSE for inactive

INSERT INTO measurements (record_smiles, measured_target, class_name) VALUES
  ('CC(=O)c1c(C)[nH]c(-c2nc3ccc(N4CCN(C)CC4)cc3[nH]2)c1-c1ccccc1', 'A498 renal', 'FALSE'),
  ('COc1nnc2ccc(N3CCC(c4ccc(OCCN5CCN(C)C(=O)[C@H]5C)cc4)CC3)nn12', 'A498 renal', 'TRUE'),
  ('COC(=O)[C@H]1CCCN1C(=O)[C@H]1CCCN1C(=O)[C@H](Cc1c[nH]c2ccccc12)NC(=S)Nc1cc(C(F)(F)F)cc(C(F)(F)F)c1', 'A498 renal', 'FALSE'),
  ('O=C(COc1cccc(/C=C2\CSc3ccccc3C2=O)c1)Nc1nccs1', 'A498 renal', 'FALSE');

----------
- Test system: UACC-257 melanoma
- assay_procedure: NCI tumour cell line growth inhibition, 48 h
quantity: log10(TGI) (log10 of the value in µM)

INSERT INTO results (compound, assay_value) VALUES
  ('COc1cc2cc(Oc3ccc(NC(=O)Nc4ccc(Cl)c(Cl)c4)cc3)c(C)nc2cc1OC', 0.80),
  ('CC(=O)O[C@H]1CC[C@@]2(C)C(=CC[C@@H]3C2CC[C@]2(C)Nc4nc5ccccc5cc4CC32)C1 (stereo partly drawn)', 1.11),
  ('C[C@H](C/C=C/C(C)(C)O)[C@H]1CC[C@@]2(C)[C@@H]3CC[C@H]4C(C)(C)[C@@H](O)CC[C@@]45C[C@@]35CC[C@]12C', 1.52),
  ('N=c1c2c(=N)n3c(nc2nc2n1-c1ccccc1Sc1ccccc1-2)sc1cc(Cl)ccc13', 1.74),
  ('CSC(=Nc1ccccc1)/N=C(\SCc1ccccc1)N(C)C', 0.51),
  ('C=CC(=O)N1CC2(CC(n3nc(-c4ccc5c(cnn5C)c4)c(-c4c(Cl)c(C)cc5[nH]ncc45)c3C)C2)C1', 0.82),
  ('CC1CC(=O)N(N(C)C)C(C#N)(C#N)C1(C#N)C#N (stereo not drawn)', 1.47),
  ('c1ccc2c3c([nH]c2c1)C(c1ccc(C2NCCc4c2[nH]c2ccccc42)cc1)NCC3 (stereo not drawn)', 0.55),
  ('COC(=O)C=Cc1ccc2nncnc2c1 (mixture of isomers)', 1.56);
